Quick record: log10(Ki), human 5-HT2B receptor (Homo sapiens, UniProt P41595).
Please note: log10 values; quantity Ki; unit nM.

- COc1ccc2[nH]cc(CCNCc3cc(F)ccc3O)c2c1: 0.95
- COc1ccc2[nH]cc(CCNCc3ccccc3OC)c2c1: 1.20

Measured log10(Ki) (human 5-HT2B receptor (Homo sapiens, UniProt P41595)), entry c1ccc(CNCCc2c[nH]c3ccccc23)cc1 [Compound 1, N-Benzyl-[2-(1H-indol-3-yl)ethyl]amine] : 2.00

Value (log10(Ki), human 5-HT2B receptor (Homo sapiens, UniProt P41595)) for record `Brc1ccc(CNCCc2c[nH]c3ccccc23)cc1` = 2.42

Query `COc1ccc(CNCCc2c[nH]c3ccccc23)c(OC)c1` on human 5-HT2B receptor (Homo sapiens, UniProt P41595); log10(Ki) returned: 2.37

Field log10(Ki) (system: human 5-HT2B receptor (Homo sapiens, UniProt P41595)) for entry `Cc1ccc(O)c(CNCCc2c[nH]c3ccccc23)c1` = 2.19

Case `NCCc1c[nH]c2ccccc12` , human 5-HT2B receptor (Homo sapiens, UniProt P41595), log10(Ki) recorded as 2.04

The observed log10(Ki) for `COc1ccccc1CNCCc1c[nH]c2ccccc12` when tested with human 5-HT2B receptor (Homo sapiens, UniProt P41595) stands at 1.67

Reported log10(Ki) (human 5-HT2B receptor (Homo sapiens, UniProt P41595)) for entry `COc1ccc2[nH]cc(CCNCc3ccc(Br)cc3)c2c1` is 2.19

Form: item `COc1ccc(OC)c(CNCCc2c[nH]c3ccccc23)c1` ; test system human 5-HT2B receptor (Homo sapiens, UniProt P41595); log10(Ki): 1.76
